The reported measurements were obtained from patent US20170239237A1.

molecular target: 5-HT7 receptor (Homo sapiens); assay: Radioligand binding, 5-HT7 ([3H]-5-CT displacement); conditions: read-out: Ki 5-HT7
Sequence (P34969 1-432 limits assumed): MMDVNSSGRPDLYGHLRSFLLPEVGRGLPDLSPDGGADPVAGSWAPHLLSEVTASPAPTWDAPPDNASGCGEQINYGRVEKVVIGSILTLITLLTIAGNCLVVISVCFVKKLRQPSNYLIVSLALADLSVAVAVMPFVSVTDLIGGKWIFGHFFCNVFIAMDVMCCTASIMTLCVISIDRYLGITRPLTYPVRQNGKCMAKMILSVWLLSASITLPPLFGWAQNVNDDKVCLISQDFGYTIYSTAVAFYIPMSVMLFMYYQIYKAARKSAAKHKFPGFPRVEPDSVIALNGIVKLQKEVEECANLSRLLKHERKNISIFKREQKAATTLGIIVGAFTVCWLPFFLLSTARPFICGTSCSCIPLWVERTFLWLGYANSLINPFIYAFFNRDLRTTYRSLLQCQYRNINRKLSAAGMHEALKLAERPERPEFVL
MEASURED METRIC: Ki

COMPOUND	EXPERIMENTAL SYSTEM	Ki
Cc1cccc(S(=O)(=O)n2ccc3c(N4CCNCC4)nc4ccccc4c32)c1 [Compound 39]	5-HT7 receptor (Homo sapiens)	4140 nM

Please examine the following record next.
// recorded Ki for O=S(=O)(c1cccc(Cl)c1)n1ccc2c(N3CCNCC3)nc3ccccc3c21 [Compound 29] : 1790 nM

* * *

target: 5-HT6 receptor (Homo sapiens); assay: Radioligand binding, 5-HT6 ([3H]-LSD displacement); conditions: 10^−6 M; values marked c in the 5-HT6 column
Marks after values point to notes of the source that are not given here.
Entries and their measured displacement % at 10^−6M, 5-HT6 follow.

COMPOUND	RESULT
Nc1ccc(S(=O)(=O)n2ccc3c(N[C@H]4CCNC4)nc4ccccc4c32)cc1	100^c %
Nc1ccc2nc(N3CCNCC3)c3ccn(S(=O)(=O)c4ccc(Cl)c(Cl)c4)c3c2c1	90^c %
O=S(=O)(c1cccc(F)c1)n1ccc2c(N[C@@H]3CCNC3)nc3ccccc3c21	100^c %

displacement % at 10^−6M, 5-HT6 recorded for this compound, O=C(c1cccc(Cl)c1)n1ccc2c(N3CCNCC3)nc3ccccc3c21 , is 90^C %

Summary for this compound, Nc1ccc(S(=O)(=O)n2ccc3c(NC4CCNC4)nc4ccccc4c32)cc1 (stereo not shown) : displacement % at 10^−6M, 5-HT6 is 100^c %

According to the records, this compound Nc1ccc(S(=O)(=O)n2ccc3c(N[C@@H]4CCNC4)nc4ccccc4c32)cc1 displays displacement % at 10^−6M, 5-HT6 of 99^c %

// displacement % at 10^−6M, 5-HT6 lookup, compound = O=S(=O)(c1cccc(Cl)c1)n1ccc2c(NC3CCNC3)nc3ccc(Cl)cc3c21 (stereo not shown) , result: 96^c %

* * *

molecular target: 5-HT6 receptor (Homo sapiens); assay: CHO-human-5HT6-Aequorin functional assay (ago-/antagonism); conditions: agonist effect; CHO-human-5HT6-Aequorin cells; test concentration not given
MEASURED METRIC: % inhibition of control agonist response

MOLECULE	EXPERIMENTAL SYSTEM	% inhibition of control agonist response
CN1CCN(c2nc3ccccc3c3c2ccn3S(=O)(=O)c2cccc3cccnc23)CC1	5-HT6 receptor (Homo sapiens)	16.9%
CC(C)c1ccc(S(=O)(=O)n2ccc3c(N4CCNCC4)nc4ccccc4c32)cc1	5-HT6 receptor (Homo sapiens)	−5.2%
O=S(=O)(c1cccc2cccnc12)n1ccc2c(N3CCNCC3)nc3ccccc3c21	5-HT6 receptor (Homo sapiens)	7.8%
O=S(=O)(c1cccc2ccccc12)n1ccc2c(NC3CCNC3)nc3ccccc3c21 (centres unmarked)	5-HT6 receptor (Homo sapiens)	10.6%
O=S(=O)(c1ccc(F)cc1)n1ccc2c(NC3CCNC3)nc3ccccc3c21 (centres unmarked)	5-HT6 receptor (Homo sapiens)	4.8%

Per the record, O=S(=O)(c1cccc(F)c1)n1ccc2c(NC3CCNC3)nc3ccccc3c21 (centres unmarked) has % inhibition of control agonist response of 9.6%

Note to self: % inhibition of control agonist response recorded for O=S(=O)(c1cccc2cccnc12)n1ccc2c(NC3CCNC3)nc3ccccc3c21 (centres unmarked) was 16.4%

Input O=S(=O)(c1cccc(C(F)(F)F)c1)n1ccc2c(NC3CCNC3)nc3ccccc3c21 (centres unmarked) . Output % inhibition of control agonist response: 10.8%

* * *

molecular target: 5-HT6 receptor (Homo sapiens, UniProt P50406); assay: Radioligand binding, 5-HT6 ([3H]-LSD displacement)
Sequence (P50406 whole entry): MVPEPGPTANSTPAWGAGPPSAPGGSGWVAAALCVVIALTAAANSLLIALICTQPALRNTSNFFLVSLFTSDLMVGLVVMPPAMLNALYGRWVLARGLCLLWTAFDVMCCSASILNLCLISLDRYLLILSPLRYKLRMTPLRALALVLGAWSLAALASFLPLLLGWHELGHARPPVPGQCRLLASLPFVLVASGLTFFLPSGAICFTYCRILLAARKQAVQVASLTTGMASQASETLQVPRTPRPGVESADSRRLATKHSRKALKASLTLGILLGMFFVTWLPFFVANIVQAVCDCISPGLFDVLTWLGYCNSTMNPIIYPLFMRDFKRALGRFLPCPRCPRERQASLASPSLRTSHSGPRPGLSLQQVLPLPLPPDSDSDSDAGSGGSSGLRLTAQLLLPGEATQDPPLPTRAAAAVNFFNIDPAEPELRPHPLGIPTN
MEASURED METRIC: pKi
Schema: pKi number; meaning minus log10 of the concentration expressed in molar units.

// O=S(=O)(c1cccc2cccnc12)n1ccc2c(N3CCCCC3)nc3ccccc3c21 [Compound 77] : pKi value = 6.73

pKi in this record for O=S(=O)(c1cccc(Cl)c1)n1ccc2c(N3CCCCC3)nc3ccccc3c21 [Compound 76] : 6.44

For reference, reported pKi for O=S(=O)(c1cccc2cccnc12)n1ccc2c(N3CCOCC3)nc3ccccc3c21 [Compound 79] stands at 7.02

Memo: O=S(=O)(c1ccccc1Br)n1ccc2c(N3CCNCC3)nc3ccccc3c21 [Compound 28] , reported pKi: 8.52

* * *

A collection of compounds and their measured displacement % at 10^−6M, 5-HT6
biological target: 5-HT6 receptor (Homo sapiens, UniProt P50406); assay: Radioligand binding, 5-HT6 ([3H]-LSD displacement); conditions: 10^−6 M; values marked c in the 5-HT6 column
Marks after values point to notes of the source that are not given here.

COMPOUND	RESULT
O=S(=O)(c1cccc(C(F)(F)F)c1)n1ccc2c(N[C@H]3CCNC3)nc3ccccc3c21	98^c %
O=S(=O)(c1cccc(Cl)c1)n1ccc2c(N3CCCNCC3)nc3ccccc3c21	100^c %

For reference, reported displacement % at 10^−6M, 5-HT6 for CNC1CCN(c2nc3ccccc3c3c2ccn3S(=O)(=O)c2ccccc2)C1 (stereo not shown) stands at 90^c %

The recorded displacement % at 10^−6M, 5-HT6 for entry O=S(=O)(c1cccc(C(F)(F)F)c1)n1ccc2c(N[C@@H]3CCNC3)nc3ccccc3c21 equals 99^c %

* * *

molecular target: dopamine D2L receptor (Homo sapiens, UniProt P14416); test: Radioligand binding, D2 ([3H]-raclopride displacement)
Sequence (P14416 whole entry): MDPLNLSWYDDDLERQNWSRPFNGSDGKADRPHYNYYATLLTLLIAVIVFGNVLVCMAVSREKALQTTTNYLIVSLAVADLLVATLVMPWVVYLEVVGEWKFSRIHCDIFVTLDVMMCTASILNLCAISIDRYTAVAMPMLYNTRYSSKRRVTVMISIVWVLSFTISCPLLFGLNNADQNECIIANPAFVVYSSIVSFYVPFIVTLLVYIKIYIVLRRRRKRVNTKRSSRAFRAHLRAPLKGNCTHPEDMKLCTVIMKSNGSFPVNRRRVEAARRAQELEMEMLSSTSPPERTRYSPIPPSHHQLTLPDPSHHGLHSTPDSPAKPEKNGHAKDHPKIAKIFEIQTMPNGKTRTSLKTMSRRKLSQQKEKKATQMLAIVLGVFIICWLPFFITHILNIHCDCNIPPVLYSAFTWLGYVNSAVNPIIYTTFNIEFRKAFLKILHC
Quick rule for you: Ki under 1000 nM gets true (1), anything else gets false (0).

CN1CCN(c2nc3ccccc3c3c2ccn3S(=O)(=O)c2ccc(F)cc2)CC1 true (1)
Cc1ccc2sc(S(=O)(=O)n3ccc4c(N5CCNCC5)nc5ccccc5c43)cc2c1 false (0)
CC(C)(C)c1ccc(S(=O)(=O)n2ccc3c(N4CCNCC4)nc4ccccc4c32)cc1 false (0)
O=S(=O)(c1ccc(F)cc1)n1ccc2c(N3CCNCC3)nc3ccccc3c21 false (0)
O=S(=O)(c1cccc(Cl)c1)n1ccc2c(N3CCCCC3)nc3ccccc3c21 false (0)

Query block: Just wondering, is Ki of O=S(=O)(c1cccc2ccccc12)n1ccc2c(N3CCNCC3)nc3ccccc3c21 below 1000 nM?
Result block: false (0)

Query block: Here's an entry: CN1CCN(c2nc3ccccc3c3c2ccn3S(=O)(=O)c2ccccc2)CC1 . Is its Ki below 1000 nM?
Result block: true (1)

Query block: Would you kindly verify if Ki of O=S(=O)(c1cccc2cccnc12)n1ccc2c(N3CCN(Cc4ccccc4)CC3)nc3ccccc3c21 is strictly less than 1000 nM?
Result block: false (0)

Query block: Find out if reported Ki for Cc1c(S(=O)(=O)n2ccc3c(N4CCNCC4)nc4ccccc4c32)sc2ccc(Cl)cc12 is less than 1000 nM
Result block: true (1)

Query block: State whether 1000 nM exceeds Ki recorded for O=S(=O)(c1ccccc1)n1ccc2c(N3CCNCC3)nc3ccccc3c21 .
Result block: false (0)

Query block: Criterion: Ki strictly below 1000 nM. Is it met by O=S(=O)(c1ccc(C(F)(F)F)cc1)n1ccc2c(N3CCNCC3)nc3ccccc3c21 ?
Result block: false (0)

Query block: Does the reported Ki of O=S(=O)(c1ccc(Cl)s1)n1ccc2c(N3CCN(Cc4ccccc4)CC3)nc3ccccc3c21 stay below 1000 nM?
Result block: true (1)

Query block: Confirm or reject: Ki of O=S(=O)(c1ccc(Cl)s1)n1ccc2c(N3CCNCC3)nc3ccccc3c21 lies strictly below 1000 nM
Result block: true (1)

Query block: Quick check: Ki of O=S(=O)(c1cccc(Cl)c1)n1ccc2c(N3CCOCC3)nc3ccccc3c21 under 1000 nM?
Result block: false (0)

Query block: Is it true that Ki reported for N#Cc1cccc(S(=O)(=O)n2ccc3c(N4CCNCC4)nc4ccccc4c32)c1 is less than 1000 nM?
Result block: false (0)

Query block: Find out if reported Ki for CN1CCN(c2nc3ccccc3c3c2ccn3S(=O)(=O)c2cccc3ccccc23)CC1 is less than 1000 nM
Result block: true (1)

Query block: Here's an entry: O=S(=O)(c1ccccc1)n1ccc2c(N3CCN(Cc4ccccc4)CC3)nc3ccccc3c21 . Is its Ki below 1000 nM?
Result block: true (1)

* * *

target: 5-HT6 receptor (Homo sapiens); assay: Radioligand binding, 5-HT6 ([3H]-LSD displacement)
MEASURED METRIC: pKi
Remember the convention: pKi equals -log10 of concentration in molar.

Reference set (3 entries):
MOLECULE	EXPERIMENTAL SYSTEM	pKi
O=S(=O)(c1cccc(C(F)(F)F)c1)n1ccc2c(NC3CCNC3)nc3ccccc3c21 (centres unmarked)	5-HT6 receptor (Homo sapiens)	8.15
CC(C)(C)c1ccc(S(=O)(=O)n2ccc3c(NC4CCNC4)nc4ccccc4c32)cc1 (centres unmarked)	5-HT6 receptor (Homo sapiens)	7.00
O=S(=O)(c1cccc2cccnc12)n1ccc2c(N3CCNCC3)nc3ccccc3c21	5-HT6 receptor (Homo sapiens)	8.30

Per the records, this molecule ( O=S(=O)(c1ccc(Cl)s1)n1ccc2c(N3CCN(Cc4ccccc4)CC3)nc3ccccc3c21 ) has pKi equal to 7.03
